Hello, the source for this data is patent US9790221B2, in case you need it.

target-system: IRAK4 (Homo sapiens (Human), UniProt Q9NWZ3)
Sequence (Q9NWZ3 whole entry): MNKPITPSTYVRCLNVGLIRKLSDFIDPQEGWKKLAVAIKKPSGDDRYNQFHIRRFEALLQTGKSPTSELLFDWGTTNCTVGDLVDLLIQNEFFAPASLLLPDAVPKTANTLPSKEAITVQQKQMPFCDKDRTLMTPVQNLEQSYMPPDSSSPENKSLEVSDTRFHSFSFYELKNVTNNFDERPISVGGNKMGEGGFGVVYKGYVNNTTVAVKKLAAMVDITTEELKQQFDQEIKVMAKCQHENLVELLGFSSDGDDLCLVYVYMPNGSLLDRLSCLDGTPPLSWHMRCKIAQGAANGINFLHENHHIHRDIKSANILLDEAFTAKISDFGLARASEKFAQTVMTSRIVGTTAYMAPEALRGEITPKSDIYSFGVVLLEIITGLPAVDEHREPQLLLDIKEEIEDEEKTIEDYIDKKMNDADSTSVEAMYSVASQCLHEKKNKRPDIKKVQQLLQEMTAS
Structures can show the parent of a compound that is named as a salt.
result-type: IC50

The following molecules have reported results that may help.
molecule	IC50
Cn1cc(-c2cccc(-c3ncc(-c4ccn(C)n4)c(N[C@H]4CCNC4)n3)c2)cn1 [Example 117]	100 to 1000 nM
Cn1cc(-c2cccc(-c3ncc(-c4cnn(C)c4)c(NCC4CCCC4NS(C)(=O)=O)n3)c2)cn1 (stereo not shown) [Example 203]	100 to 1000 nM
Cn1cc(-c2cccc(-c3ncc(-c4ccn(C)n4)c(NC4C5CCCC4CC(N)C5)n3)c2)cn1 (stereo not shown) [Example 152]	< 100 nM

Required: IC50, one value per molecule below.
1. Cn1cc(-c2cccc(-c3ncc(-c4ccn(C)n4)c(N[C@H]4C[C@@H](S(C)(=O)=O)C4)n3)c2)cn1 [Example 79]
2. Cn1cc(-c2cccc(-c3ncc(-c4cnn(C)c4)c(N[C@H]4C[C@H](O)C4)n3)c2)cn1 [Example 47]
3. COC(=O)c1nnc(-c2cnc(-c3cccc(-c4cnn(C)c4)c3)nc2NCC2CNC2)s1 [Example 19, Trifluoroacetate]
4. Cn1cc(-c2cccc(-c3ncc(-c4cnn(C)c4)c(N[C@H]4CC[C@H](O)[C@@H]4O)n3)c2)cn1 [Example 273]

1: 100 to 1000 nM; 2: 100 to 1000 nM; 3: 100 to 1000 nM; 4: < 100 nM
